target: T1, human Insulin Receptor A (hIR-A) (human, UniProt P06213-2 28-1370); test: SPA, displacement of 125I-insulin from solubilised hIR-A, 1.5% HSA; increase in relative affinity from 0 to 20 mM glucose
T1 construct: Solubilized semi-purified receptor captured on SPA beads through antibody 83-7
T1 sequence (P06213 other isoform, or with tags, fused parts or gaps limits assumed): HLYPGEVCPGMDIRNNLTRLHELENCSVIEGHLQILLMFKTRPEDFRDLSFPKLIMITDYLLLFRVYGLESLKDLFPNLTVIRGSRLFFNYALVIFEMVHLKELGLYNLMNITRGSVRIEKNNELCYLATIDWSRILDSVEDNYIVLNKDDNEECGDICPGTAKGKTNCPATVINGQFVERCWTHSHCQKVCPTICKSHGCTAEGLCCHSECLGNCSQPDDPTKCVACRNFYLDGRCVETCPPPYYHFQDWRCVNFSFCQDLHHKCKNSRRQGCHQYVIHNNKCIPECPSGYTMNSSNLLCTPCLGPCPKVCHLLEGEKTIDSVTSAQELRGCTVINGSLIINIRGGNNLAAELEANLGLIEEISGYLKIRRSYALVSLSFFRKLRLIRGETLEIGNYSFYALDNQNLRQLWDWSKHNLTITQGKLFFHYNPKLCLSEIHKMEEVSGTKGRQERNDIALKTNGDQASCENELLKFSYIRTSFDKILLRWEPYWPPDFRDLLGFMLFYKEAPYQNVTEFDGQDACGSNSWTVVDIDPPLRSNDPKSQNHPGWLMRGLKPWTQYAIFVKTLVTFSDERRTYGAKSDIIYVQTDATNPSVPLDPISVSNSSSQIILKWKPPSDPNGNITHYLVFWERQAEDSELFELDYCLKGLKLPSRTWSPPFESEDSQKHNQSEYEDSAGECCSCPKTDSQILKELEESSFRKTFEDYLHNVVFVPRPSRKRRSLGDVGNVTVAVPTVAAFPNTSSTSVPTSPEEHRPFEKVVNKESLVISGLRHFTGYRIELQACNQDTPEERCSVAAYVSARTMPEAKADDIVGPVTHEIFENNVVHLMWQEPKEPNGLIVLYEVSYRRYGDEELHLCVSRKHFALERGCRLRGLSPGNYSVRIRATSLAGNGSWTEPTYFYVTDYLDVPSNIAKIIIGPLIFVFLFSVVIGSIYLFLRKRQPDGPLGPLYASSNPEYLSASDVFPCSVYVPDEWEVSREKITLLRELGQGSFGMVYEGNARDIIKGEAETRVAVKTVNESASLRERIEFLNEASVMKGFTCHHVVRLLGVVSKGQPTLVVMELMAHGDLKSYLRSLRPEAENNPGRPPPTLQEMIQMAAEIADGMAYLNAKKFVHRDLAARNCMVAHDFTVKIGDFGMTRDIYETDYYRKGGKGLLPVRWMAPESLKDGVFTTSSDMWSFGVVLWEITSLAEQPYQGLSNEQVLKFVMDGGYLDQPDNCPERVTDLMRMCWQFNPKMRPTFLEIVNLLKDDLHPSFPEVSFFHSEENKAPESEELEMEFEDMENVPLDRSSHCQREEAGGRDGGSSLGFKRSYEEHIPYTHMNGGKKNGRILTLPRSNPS
METRIC: HIR glucose factor, 20 mM glucose 1.5% HSA (fold)
Record the value in fold, omitting the unit from your answer.

Compound of Example 349 (ligand, diboron group of building block of Example 38 on amino group(s); site(s) shown only in the drawing) chain 1: GIVEQCCTSICSLEQLENYCNK chain 2: FVNQHLCGSHLVEALYLVCGERGFHYPK
4.7

HIR glucose factor, 20 mM glucose 1.5% HSA recorded for this binder, Compound of Example 352 (ligand, diboron group of building block of Example 40 on amino group(s); site(s) shown only in the drawing) chain 1: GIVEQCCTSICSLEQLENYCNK chain 2: FVNQHLCGSHLVEALYLVCGERGFHYPK , is 5.2

HIR glucose factor, 20 mM glucose 1.5% HSA recorded for this binder, Compound of Example 350 (ligand, diboron group of building block of Example 37 on amino group(s); site(s) shown only in the drawing) chain 1: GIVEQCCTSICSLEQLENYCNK chain 2: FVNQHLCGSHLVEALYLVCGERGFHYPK , is 18.4

HIR glucose factor, 20 mM glucose 1.5% HSA recorded for this binder, Compound of Example 348 (ligand, diboron group of building block of Example 39 on amino group(s); site(s) shown only in the drawing) chain 1: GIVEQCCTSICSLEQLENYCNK chain 2: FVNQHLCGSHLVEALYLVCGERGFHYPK , is 7.3
